# ASSAYED TARGET: human β2 adrenergic receptors (Homo sapiens, UniProt P07550)
# Sequence (P07550 whole entry): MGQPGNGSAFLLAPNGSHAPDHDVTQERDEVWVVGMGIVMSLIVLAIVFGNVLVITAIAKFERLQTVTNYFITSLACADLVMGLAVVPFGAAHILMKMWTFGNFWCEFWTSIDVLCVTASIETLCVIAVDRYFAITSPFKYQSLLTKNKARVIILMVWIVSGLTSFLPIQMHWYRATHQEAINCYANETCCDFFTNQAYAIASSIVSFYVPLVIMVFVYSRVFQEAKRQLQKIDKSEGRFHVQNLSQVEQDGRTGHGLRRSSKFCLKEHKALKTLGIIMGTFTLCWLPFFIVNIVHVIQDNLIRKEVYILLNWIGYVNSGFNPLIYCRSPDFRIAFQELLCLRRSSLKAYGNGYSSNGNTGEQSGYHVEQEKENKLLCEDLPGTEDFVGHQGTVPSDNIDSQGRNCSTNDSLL
# PROTOCOL DESCRIPTION: cAMP elevation in CHO cells transfected with human β2 adrenergic receptor
# Assay type: cell-based
# EXPERIMENTAL CONTEXT: 10 min, CHO cells expressing human β2 receptor, compound at 10 nM, 37° C., relative to isoproterenol at 10 μM, read-out: β2, % of isoproterenol activity (increase in cAMP)
# Experimental: The activity of the test compounds on human β-adrenergic receptors was determined with Chinese hamster ovary (CHO) cells transfected with human β3, β2, or β1 adrenergic receptors. […] Selectivity of the test compounds for the β3 receptor was assessed by comparison with results in β2 and β1 adrenergic receptor transfected cells. […] 6). Activities for the test compounds are expressed as a percentage of the isoproterenol response. […]
QUANTITY KIND: activation at 0.01 µM (%)

Examples with answers:
COMPOUND	activation at 0.01 µM (%)
C[C@H](Cc1ccc2c(c1)OC(C(=O)OC1CCCC1)C(C(=O)OC1CCCC1)O2)NC[C@H](O)c1cccc(Cl)c1 (stereo partly shown) [Example 10]	4
C[C@H](Cc1ccc2c(c1)OC(C(=O)OCc1ccccc1)C(C(=O)OCc1ccccc1)O2)NC[C@H](O)c1cccc(Cl)c1 (stereo partly shown) [Example 12]	11
CC(C)OC(=O)C1Oc2cc(C[C@@H](C)NC[C@H](O)c3cccc(Cl)c3)ccc2OC1C(=O)O (stereo partly shown) [Example 5]	11
C[C@H](Cc1ccc2c(c1)OC(C(=O)OC1CCCCC1)C(C(=O)OC1CCCCC1)O2)NC[C@H](O)c1cccc(Cl)c1 (stereo partly shown) [Example 9]	1
CCCCCCCCOC(=O)C1Oc2ccc(C[C@@H](C)NC[C@H](O)c3cccc(Cl)c3)cc2OC1C(=O)OCCCCCCCC (stereo partly shown) [Example 11]	38

A: CC(C)OC(=O)C1Oc2ccc(C[C@@H](C)NC[C@H](O)c3cccc(Cl)c3)cc2OC1C(=O)OC(C)C (stereo partly shown) [Example 4]
B: CCCCOC(=O)C1Oc2ccc(C[C@@H](C)NC[C@H](O)c3cccc(Cl)c3)cc2OC1C(=O)OCCCC (stereo partly shown) [Example 6]
Consider A and B . Which of these has its activation at 0.01 µM at a higher number? Indicate your choice by writing its label. B
(B: 16%, A: 9%)
